The measured values listed here are drawn from ChEMBL document CHEMBL1255172.

target: Cytochrome P450 1A2 (Homo sapiens); assay: Inhibition of CYP1A2; type: ADME
Sequence (P05177 whole entry): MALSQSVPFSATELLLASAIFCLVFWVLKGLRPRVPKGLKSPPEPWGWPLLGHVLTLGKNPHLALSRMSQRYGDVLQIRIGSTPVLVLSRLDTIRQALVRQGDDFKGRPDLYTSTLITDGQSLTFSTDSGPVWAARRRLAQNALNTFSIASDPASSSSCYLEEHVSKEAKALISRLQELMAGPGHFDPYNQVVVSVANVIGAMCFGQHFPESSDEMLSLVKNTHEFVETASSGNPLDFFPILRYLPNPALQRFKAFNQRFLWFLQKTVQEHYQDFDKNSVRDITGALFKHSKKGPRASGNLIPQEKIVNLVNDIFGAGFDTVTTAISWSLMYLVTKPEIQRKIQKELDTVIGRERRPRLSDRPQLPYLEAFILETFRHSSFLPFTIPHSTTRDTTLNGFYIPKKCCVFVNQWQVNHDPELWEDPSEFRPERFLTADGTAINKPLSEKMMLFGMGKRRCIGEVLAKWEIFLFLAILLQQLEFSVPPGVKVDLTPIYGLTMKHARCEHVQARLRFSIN
observable: INH

- smiles text: "O=C1O[C@]2(CC[C@H](CNc3cnn(-c4ccccc4F)c3)CC2)CN1c1cnccn1"
  INH: "> 10 µM"
- smiles text: "O=C1O[C@]2(CC[C@H](CNc3ncc(-c4ccccc4F)cn3)CC2)CN1c1ccccn1"
  INH: "6 µM"
- smiles text: "O=C1O[C@]2(CC[C@H](CNc3ccc(-c4cc(F)cc(F)c4)nn3)CC2)CN1c1cccnn1"
  INH: "> 10 µM"

Query block: # lookup: Cytochrome P450 1A2 (Homo sapiens) INH, key = O=C1O[C@]2(CC[C@H](CNc3ccc(-c4ccccc4F)nn3)CC2)CN1c1ccccn1
Result block: 5 µM
